B1: MYOZ1 (parent)
chain: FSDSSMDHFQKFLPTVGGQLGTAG

Variants of: B1
Assay: protein stability index of a GFP-peptide fusion (GPS, HEK-293T) (PSI 1-6); higher = more stable;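 note: lentivirally expressed fusions sorted by FACS into six bins by GFP to DsRed ratio, PSI derived from sequencing read proportions per bin multiplied by bin number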
Conditions: c terminus: a fixed tail appended
measured-attribute: protein stability index
Form field (numeric): enter value without unit.

Before answering, review these 3 worked examples.
{"columns": ["sequence-code", "protein stability index"],
 "data": [
  ["FSDSSMDHFQKFLPTVCGQLGTAG [G17C]", 1.97],
  ["FSDSSMDHFQKFLPTVGGQLGQAG [T22Q]", 2.36],
  ["FSDSSMDHFAKFLPTVGGQLGTAG [Q10A]", 2.33]
]}

Tell me measured protein stability index for FSDSSLDHFQKFLPTVGGQLGTAG [M6L] please.
2.29

Tell me measured protein stability index for FSDDSMDHFQKFLPTVGGQLGTAG [S4D] please.
2.15

Tell me measured protein stability index for FSDSSMDHFQKFLPTVGGPLGTAG [Q19P] please.
2.51

Tell me measured protein stability index for FSDSSMDHFQKMLPTVGGQLGTAG [F12M] please.
3.11

Tell me measured protein stability index for FSDSSMDHFQKFLDTVGGQLGTAG [P14D] please.
1.61

Tell me measured protein stability index for PSDSSMDHFQKFLPTVGGQLGTAG [F1P] please.
3.6

Tell me measured protein stability index for FSDSSMDHFQKFLPTVGEQLGTAG [G18E] please.
3.48

Tell me measured protein stability index for FSDSSMDHFQKFLPTVGCQLGTAG [G18C] please.
2.04

Tell me measured protein stability index for VSDSSMDHFQKFLPTVGGQLGTAG [F1V] please.
3.56
